I'd appreciate it if you could supply normalized growth values for the items below.
assay: chemical genetic growth profiling, strain panel (AID 1159580);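 also: tested at 20 µM; growth read once vehicle control cultures reached saturation at 30 °C; 1 = growth at the plate median or of vehicle wells; lower values mean less growth of the strain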; conditions: S. cerevisiae deletion strains, growth OD, locus YDL074C, strain BRE1, stronger effect = lower value
About 2,000 (36%) of roughly 5,500 compounds were called active. About 18% were inconclusive and are not listed. Some of the results follow.
Please state the value as a number alone, without comment.

Which normalized growth is listed for `COc1ccccc1-c1cc(=O)c2c(OC)cccc2o1` ?
0.923

Try this molecule next: `Nc1ccc(S(=O)(=O)Nc2nccs2)cc1`
1.01

Try this molecule next: CC1=CC(=O)CC(C)(C)C1(O)/C=C/C(C)=C\C(=O)O (configuration not stated)
0.985

Try this molecule next: CN1CCc2cccc3c2C1Cc1ccc(O)c(O)c1-3 (configuration not stated)
1.01

Try this molecule next: `Nc1nccs1`
0.96

Try this molecule next: COc1cc2c3cc1Oc1cc(ccc1O)OC1c4c(cc(OC)c(O)c4Oc4ccc(cc4)CC3N(C)CC2)CCN1C (configuration not stated)
1.02

Try this molecule next: `Nc1nc2ncc(CNc3ccc(C(=O)N[C@@H](CCC(=O)O)C(=O)O)cc3)nc2c(=O)[nH]1`
0.993

Try this molecule next: `NC(=O)N/N=C\c1ccc([N+](=O)[O-])o1`
1.08

Try this molecule next: CCCCC(CC)CN=C(N)NC(N)=NCCCCCCN=C(N)NC(N)=NCC(CC)CCCC (configuration not stated)
0.0887

Try this molecule next: `CCOP(=S)(OCC)Oc1ccc2c(C)c(Cl)c(=O)oc2c1`
0.907

Try this molecule next: `COc1ccc2c(c1O)-c1c(OC)c(OC)cc3c1[C@H](C2)N(C)CC3`
1.1

Try this molecule next: `CCOC(N)=O`
1
